System: UACC-257 melanoma
EXPERIMENT_SUMMARY: NCI tumour cell line growth inhibition, 48 h
MEASURED_METRIC: TGI

Worked examples follow.
> print(dat)
                               input.smiles  obs.value
1                        S=c1ssnc1-c1ccccn1    8.47 µM
2  O=C1C(Br)=C(C2=CC(=P(c3ccccc3)(c3ccccc3)c3ccccc3)C=C2)C(=O)C(Br)=C1C1=CC(=P(c2ccccc2)(c2ccccc2)c2ccccc2)C=C1    95.1 µM
3  CC(=O)/C(=C/n1ccc(=O)[nH]c1=S)C(=O)Nc1ccccc1C   > 100 µM

Measured on UACC-257 melanoma, O=C1c2c(c(-c3ccccc3)c(-c3ccccc3)c(-c3ccccc3)c2-c2ccccc2)C(=O)N1c1cccc(Br)c1 has a documented TGI of > 100 µM

The reported TGI value, UACC-257 melanoma, for CC(C)N(Cc1c(F)cccc1F)c1ccc(CO)c(Cl)c1 reads 0.195 µM

---

Test system: M14 melanoma
EXPERIMENT_SUMMARY: NCI tumour cell line growth inhibition, 48 h
MEASURED_METRIC: TGI (µM)
Write down the numeric answer in µM and omit the unit.

Look over these answered cases.
MOLECULE	TGI (µM)
Cc1c(-c2c(C)c(=O)c3c(C(C)C)c(=O)c(=O)c(C=O)c-3c2=O)c(O)c2c(C=O)c(O)c(O)c(C(C)C)c2c1O	4.24
N#CC1=C(N)OC2=C(CCCc3ccccc32)C1c1ccc([N+](=O)[O-])cc1 (stereo not given)	28
C=Cc1c(C)c(O)cc2c1-c1ccc(O)c(C)c1CC2	52.5
C=CC[C@@]1(OC(C)=O)C(=O)C(=O)OC1C1COC(C)(C)O1 (stereo not given in full)	35.1
CC(=O)OC(C)(C)C1O[C@@]23OC1C[C@@H](C)[C@@H]2[C@@]1(C)CC[C@@]24C[C@@]25CC[C@H](OC2OCC(O)C(O)C2O)C(C)(C)[C@@H]5CCC4[C@]1(C)[C@H]3O (stereo not given in full)	24.2
C[C@@H](CO)C1=C(O)c2ccc3c(c2C(=O)C1=O)CCCC3(C)C	40.6

Attention now shifts to the item below.
Entry under test: COc1ccc(/C=C/c2cc(OC)c(OC)c(OC)c2)cc1O[Si](C)(C)C(C)(C)C . Its TGI was 29.3

---

Tested on: SF-295 CNS
EXPERIMENT_SUMMARY: NCI tumour cell line growth inhibition, 48 h
Listed next: entries and their corresponding TGI.

Entry c1ccc2nc(-c3ccc4c(c3)OCO4)ccc2c1 , TGI reported as > 100 µM

TGI in this record for CC(CO)CCNc1ncnc2c1ncn2CCC#N (stereo unspecified) : > 100 µM

Quick note, TGI for CN(C)CCCNC(=O)c1cccc2ccccc12 landed at > 100 µM

The reported TGI of the molecule COC1(OC)CC2CCCCC2=C(C)N1S(=O)(=O)c1ccccc1 (stereo unspecified) was > 100 µM

Lab book: TGI of Cn1c(=O)nc2n(-c3cccc(Cl)c3)c3ccccc3nc-2c1=O noted as 62.1 µM

TGI measured on Cc1ccc(-c2nc3cc(N4CCN(C)CC4)c(F)cc3[nH]2)cc1 = 30.4 µM

Noted for CC(C)(Br)C(Br)CCC1(C(Br)CBr)CO1 (stereo unspecified) : its TGI reads > 10 µM

Form field TGI, entry COc1ccc(OC)c2c1C=C[C@H](C1(C)SCCS1)C2C(C)=O (stereo partly specified) : 65.5 µM

# molecule O=[N+]([O-])c1ccc2sc(C=Nc3ccc(O)cc3)cc2c1 ; its TGI = > 100 µM

Value of measured TGI for the entry COc1ccc(C(=O)c2cc(OC)c(OC)c(OC)c2)cc1OC(=O)C(Cl)(Cl)Cl : > 100 µM

Given item COC(=O)C(CCCCCCCC(C(=O)OC)c1nc2n(c1O)C(=N)N=N2)c1nc2n(c1O)C(=N)N=N2 (stereo unspecified) , the value recorded as its TGI is > 100 µM
